- experimental-target: UniProt:P00489
- Sequence (P00489 whole entry): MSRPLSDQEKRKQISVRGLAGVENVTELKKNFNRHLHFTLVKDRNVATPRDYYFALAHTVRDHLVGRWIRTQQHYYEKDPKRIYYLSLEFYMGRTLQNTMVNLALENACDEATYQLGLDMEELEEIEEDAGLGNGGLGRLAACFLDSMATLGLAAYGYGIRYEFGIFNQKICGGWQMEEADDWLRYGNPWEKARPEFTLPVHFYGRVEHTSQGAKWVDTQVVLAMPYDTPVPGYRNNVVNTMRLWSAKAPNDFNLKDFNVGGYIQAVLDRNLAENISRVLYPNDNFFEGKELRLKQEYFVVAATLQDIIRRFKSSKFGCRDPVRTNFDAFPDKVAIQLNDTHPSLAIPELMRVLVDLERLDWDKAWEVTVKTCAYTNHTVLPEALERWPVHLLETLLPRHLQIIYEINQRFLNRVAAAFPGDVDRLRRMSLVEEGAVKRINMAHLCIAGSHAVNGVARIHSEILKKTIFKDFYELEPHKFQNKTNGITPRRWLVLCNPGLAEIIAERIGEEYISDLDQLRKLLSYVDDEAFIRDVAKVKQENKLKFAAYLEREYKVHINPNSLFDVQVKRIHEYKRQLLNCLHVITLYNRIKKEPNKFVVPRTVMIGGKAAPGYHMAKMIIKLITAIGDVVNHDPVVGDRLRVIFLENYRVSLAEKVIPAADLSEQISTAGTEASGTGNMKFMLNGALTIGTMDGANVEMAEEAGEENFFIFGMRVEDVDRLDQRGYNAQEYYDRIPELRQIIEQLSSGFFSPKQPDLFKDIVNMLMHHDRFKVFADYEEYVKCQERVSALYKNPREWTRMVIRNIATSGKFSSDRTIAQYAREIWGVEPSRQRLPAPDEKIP
pIC50: −log10 of the molar value.
observable: pIC50

Worked cases, pIC50 given:
chemical-string | experimental-target | pIC50
Cn1ccnc1Sc1cc(C(=O)Nc2nccs2)c(N)cc1F | UniProt:P00489 | 4.36
Nc1cc(F)c(Sc2nncs2)cc1C(=O)Nc1cccc(F)c1 | UniProt:P00489 | 4.47
O=C(CN1CCN(c2ccccc2F)CC1)Nc1cccc(F)c1 | UniProt:P00489 | 4.73
Cn1ccnc1Sc1cc(C(=O)Nc2cccc(F)c2)c(N)cc1F | UniProt:P00489 | 4.51
Nc1cc(F)c(Sc2nncs2)cc1C(=O)Nc1cccc(C(F)(F)F)c1 | UniProt:P00489 | 4.72
Nc1cc(F)c(Sc2nccs2)cc1C(=O)Nc1cccc(C(F)(F)F)c1 | UniProt:P00489 | 4.68
Cc1cc(C)nc(Sc2cc(C(=O)Nc3cccc(C#N)c3)c(N)cc2F)n1 | UniProt:P00489 | 4.71
Cc1csc(Sc2cc(C(=O)Nc3cccc(C#N)c3)c(N)cc2F)n1 | UniProt:P00489 | 4.72

a = COc1ccc(NC(=O)CN2CCN(c3ccc(F)cc3F)CC2)cc1OC
b = COc1cccc(NC(=O)c2cc(Sc3nccn3C)c(F)cc2N)c1
Inquiry: Which shows the larger pIC50 value: a or b ? Refer to your chosen item by its label in the answer.
Reply text: b
